Reference source for all entries: patent US4540696A

Readings of Porsolt test: reduction in the immobilization time with respect to controls for the listed molecules
- MEASUREMENT DESCRIPTION: Porsolt test (despair reaction, reduction in immobilization time)
- Type: in vivo, female mouse, CDI (Charles Rivers, France)
- SETUP CONDITIONS: 10 mg/kg, per os, 1 hour before test; ** p < 0.01 (all but 40 460, which has *)
- Protocol: This test was carried out in the female mouse, CDI (Charles Rivers, France) weighing from 18 to 23 g, according to the method described by Porsolt (Archives Internationales de Pharmacologie, 1977, 229, 327-336). […] The products to be studied were administered orally to batches of 10 mice. […] The animals are left in the water for 6 minutes and the time during which the animal remains immobile between the second and the sixth minute is measured--the shorter the time, the more the substance is active. […]
Express it in %; write the number only.

Worked examples, 2 molecules total:
CN1CCN(c2nc(-c3ccccc3Cl)c3cc(Cl)ccc3n2)CC1 [40 460] ... -11
CN1CCN(c2nc(-c3ccccc3F)c3cc(Cl)ccc3n2)CC1 [40 468] ... -61

Query: Record request: Porsolt test: reduction in the immobilization time with respect to controls value, item CN1CCN(c2nc(-c3ccccc3Cl)c3cc([N+](=O)[O-])ccc3n2)CC1 [40 498]
Response: -31

Query: Record request: Porsolt test: reduction in the immobilization time with respect to controls value, item CN(C)CCCN1c2ccccc2CCc2ccccc21 [Imipramine, reference compound]
Response: -30

###

- MEASUREMENT DESCRIPTION: Toxicity
- Type: in vivo
- SETUP CONDITIONS: per os; in words (atoxic at the stated dose)
PROPERTY MEASURED: Toxicity

CN1CCN(c2nc(-c3ccccc3F)c3cc(Cl)ccc3n2)CC1 ... Atoxic at 1 g/kg
CCCN1CCN(c2nc(-c3ccccc3F)c3cc(Cl)ccc3n2)CC1 ... Atoxic at 1 g/kg
CN1CCN(c2nc(-c3ccccc3Cl)c3cc([N+](=O)[O-])ccc3n2)CC1 ... Atoxic at 1 g/kg
